- Test system: UACC-257 melanoma
- PROCEDURE_TEXT: NCI-60 one-dose screen, 48 h (100 = growth as untreated, 0 = no growth, -100 = all killed)
- MEASUREMENT_PARAMETERS: 10 µM unless noted
This is part of a sample that, as a whole, favours compounds with a hit. Of some 83,000 tested, about 20% had one in any assay.
Threshold 50%. growth below it: True. growth at it or above: False.

{"columns": ["MOLECULE", "QUALITATIVE_LABEL"],
 "data": [
  ["COc1ccc(C(=O)/C=C/c2ccc3c(c2)OCCO3)cc1S(N)(=O)=O", "False"],
  ["O=C(CSc1nc2sc3c(c2c(=O)n1-c1ccc(Cl)cc1)CCCC3)NNC(=O)c1ccc(Br)cc1", "False"],
  ["COc1ccc(-c2nnc3c(/C=C/c4ccc(Br)cc4)nc4ccccc4n23)cc1", "False"],
  ["O=C(CSc1nc2ccccc2c(=O)[nH]1)Nc1ccccc1C(=O)O", "False"],
  ["COC(=O)c1cccc(Oc2ccc(NC(=O)Nc3cc(C(F)(F)F)ccc3F)cc2)c1", "False"],
  ["O=C(NN1C(=O)/C(=C/C=C/c2ccc([N+](=O)[O-])o2)SC1=S)c1ccncc1", "True"],
  ["O=C(NNC(=O)c1ccc(OCc2nc3ccc(Cl)cc3[nH]2)cc1)Nc1ccc(Cl)c(C(F)(F)F)c1", "False"],
  ["CCCCN1C(=O)/C(=C\\C(=O)c2cc3ccccc3oc2=O)c2ccccc21", "False"],
  ["N#CC1=C(c2ccco2)Nc2c(c(-c3ccccc3)nn2-c2ccccc2)C12C(=O)Nc1ccc(Br)cc12 (stereo unspecified)", "False"],
  ["O=c1ccc(Cn2c(C(F)(F)F)cc3c(Cl)ncnc32)c[nH]1", "True"],
  ["C=CCSc1nnc(-c2ccc(-c3nc4ccc(Cl)cc4[nH]3)cc2)o1", "False"],
  ["O=C(Nc1ccc(-c2ccc3c(c2)NC(=O)/C3=C\\c2ccc[nH]2)cc1)Nc1ccc(Cl)c(Cl)c1", "False"],
  ["COc1c(B(O)O)cc(F)cc1-c1nc2ccc3[nH]ncc3c2c2c1COCC2", "False"],
  ["CCOC(=O)/C(F)=C/C1CC1C(c1ccccc1)c1ccccc1 (stereo unspecified)", "False"],
  ["COc1cc(CNC(=O)C[C@H](C)CCC=C(C)C)ccc1OCc1cn(-c2ccc(Cl)c(Cl)c2)nn1", "False"],
  ["Nc1cc2ccccc2c(=O)n1NC(=O)c1ccc(Br)cc1", "False"],
  ["N#Cc1ccc(C(=O)CSc2nc3c(c(Nc4ccc(S(N)(=O)=O)cc4)n2)CCC3)cc1", "False"],
  ["COc1ccc(/C=C/c2nc3ccccc3n3c(-c4cccc([N+](=O)[O-])c4)nnc23)cc1", "True"],
  ["CC(Nc1ncnc2ccc(-c3ccc4oc(N)nc4c3)cc12)c1ccccc1 (stereo unspecified)", "False"],
  ["NS(=O)(=O)c1cccc(Nc2nc(SCC(=O)c3ccc(F)cc3)nc3ccccc23)c1", "True"],
  ["Cc1ccc(C(=O)Nc2cc(-c3ccncc3)cc(C(F)(F)F)c2)cc1C#Cc1cnc2cccnn12", "True"],
  ["COc1ccc(C(=O)NNC(=O)CSc2nc3sc4c(c3c(=O)n2-c2ccc(Cl)cc2)CCCC4)cc1", "False"],
  ["Cc1ccc(C(=O)Nc2cc(-n3ccnc3)cc(C(F)(F)F)c2)cc1-n1cc(-c2cnc3cccnn23)nn1", "True"],
  ["O=C(Cn1c(-c2ccccc2)nc2ccccc21)N=Nc1c(O)[nH]c2ccc(Br)cc12", "True"],
  ["Nc1cc(-c2c[nH]c3ccc(Br)cc23)nc2cc(-c3c[nH]c4ccccc34)nn12", "True"],
  ["CC[C@]12C=CCN3CC[C@]4(C(=C(C(=O)OC)C1)Nc1cc(OC)c([C@@H]5[C@H]6O[C@H]6[C@@]6(CC)CC(C(=O)OC)=C7Nc8cc(O)ccc8[C@@]78CCN5[C@@H]68)cc14)[C@@H]32", "True"],
  ["Cc1cc(C(NC(=O)CCCCCNc2cccc3c2C(=O)N(C2CCC(=O)CC2=O)C3=O)c2cccc(N(C)C)c2)c(O)c2ncccc12 (stereo unspecified)", "True"],
  ["O=C(NN1C(=O)/C(=C/C=C/c2ccc([N+](=O)[O-])o2)SC1=S)c1ccc([N+](=O)[O-])cc1", "True"],
  ["CNc1nc2ccccc2n2c(-c3ccc(O)c(O)c3)cnc12", "False"],
  ["O=C1CCC(N2C(=O)c3cccc(NCCCCCC(=O)N4CCN(c5ccc6nc7c(nc6c5C(F)(F)F)C(=O)c5ncccc5C7=O)CC4)c3C2=O)C(=O)N1 (stereo unspecified)", "True"],
  ["O=C1Nc2ccccc2/C1=C\\c1ccc(OCC(=O)c2ccc(Br)cc2)cc1", "False"],
  ["Cn1cc(-c2cc(N)n3nc(-c4c[nH]c5ccc(F)cc45)cc3n2)c2cccnc21", "True"],
  ["O=C(CSc1nnc(-c2ccc(-c3nc4ccc(Cl)cc4[nH]3)cc2)o1)Nc1ccccc1", "True"],
  ["Cc1ccc(C(C)C)cc1Oc1cccc(-c2c(-c3ccc(C(F)(F)F)cc3)ncn2C2CCNCC2)n1", "True"],
  ["COc1ccc(/C=C/C(=O)c2ccc(S(=O)(=O)NCCNc3nc(N(C)C)nc(N4CCOCC4)n3)cc2)cc1", "False"],
  ["COc1ccc(N=Nc2c(N)nn3c(-c4ccc5c(c4)C=S=C5)ccnc23)cc1", "False"]
]}

----------
The compounds listed here are annotated with their growth.
- System: RXF 393 renal
- PROCEDURE_TEXT: NCI-60 one-dose screen, 48 h (100 = growth as untreated, 0 = no growth, -100 = all killed)
- MEASUREMENT_PARAMETERS: 10 µM unless noted
Compounds without any hit were thinned out: in the full panel of roughly 83,000, 20% have a hit. Active and inactive are the calls of the source. How the source made its calls: active means growth percent below 10; inactive means the rest.
MEASURED_PROPERTY: growth

{"columns": ["COMPOUND", "MEAS_VALUE"],
 "data": [
  ["O=C1Nc2cc(-c3ccc(NS(=O)(=O)c4ccc(C(F)(F)F)cc4)cc3)ccc2/C1=C/c1ccc[nH]1", "25% (inactive)"],
  ["O=C(Nc1ccc(Cl)c(C(F)(F)F)c1)N1CCN(c2cc(-c3cn(-c4ccccc4)nc3-c3cccc(O)c3)ccn2)CC1", "-35.4% (active)"],
  ["c1n[nH]cc1-c1nc2ccc3[nH]ncc3c2c2c1CC1(CC2)COC1", "-2.43% (active)"],
  ["Cc1cn(-c2cc(NC(=O)c3ccc(C)c(-n4cc(-c5cnc6cccnn56)nn4)c3)cc(C(F)(F)F)c2)cn1", "98.1% (inactive)"],
  ["COc1ccccc1Nc1nnc(-c2c[nH]c3ccccc23)o1", "-48.2% (active)"],
  ["O=C(N/N=C/c1ccc(Cl)cc1)c1ccc(OCc2nc3ccc(Cl)cc3[nH]2)cc1", "-10% (active)"],
  ["O=C(Nc1nc2ccccc2s1)Nc1ccccc1Cl", "73.8% (inactive)"],
  ["CCCCCCCCCc1ccc(C(=O)Nc2cc(C)ccc2C(=O)OC)cc1", "117% (inactive)"],
  ["CCOc1ccccc1[C@H]1C(C(=O)c2ccc(Cl)cc2)C2(N[C@@H]1c1ccccc1)C(=O)Nc1ccc(Br)cc12 (some centres undefined)", "-88.4% (active)"]
]}

----------
- Test system: MDA-MB-435 melanoma
- PROCEDURE_TEXT: NCI-60 one-dose screen, 48 h (100 = growth as untreated, 0 = no growth, -100 = all killed)
- MEASUREMENT_PARAMETERS: 1 µM
The panel holds about 83,000 compounds, 20% with a hit somewhere; the sample as a whole holds those more often. The source made the active and inactive calls. How the source made its calls: active means growth percent below 10; inactive means the rest.
Here the recorded growth is given for each entry.

{"columns": ["SMILES_STRUCTURE", "growth"],
 "data": [
  ["CC/C(=C(\\c1ccc(O)cc1)c1ccc(OCCN(C)C(=O)COCCNC(=O)Cc2ccc3c(c2)CN([C@@H]2CCC(=O)NC2=O)C3=O)cc1)c1ccccc1", "97% (inactive)"],
  ["CC/C(=C(/c1ccc(O)cc1)c1ccc(OCCN(C)C(=O)COCCOCCNC(=O)Cc2ccc3c(c2)CN([C@@H]2CCC(=O)NC2=O)C3=O)cc1)c1ccccc1", "107% (inactive)"],
  ["CC/C(=C(/c1ccc(O)cc1)c1ccc(OCCN(C)C(=O)COCCOCCNC(=O)c2ccc3c(c2)CN([C@@H]2CCC(=O)NC2=O)C3=O)cc1)c1ccccc1", "101% (inactive)"],
  ["CC/C(=C(\\c1ccc(O)cc1)c1ccc(OCCNC)cc1)c1ccccc1", "104% (inactive)"]
]}

----------
// reported growth per item
- Tested on: COLO 205 colon
- PROCEDURE_TEXT: NCI-60 one-dose screen, 48 h (100 = growth as untreated, 0 = no growth, -100 = all killed)
- MEASUREMENT_PARAMETERS: 10 µM unless noted
The panel holds about 83,000 compounds, 20% with a hit somewhere; the sample as a whole holds those more often.
MEASURED_PROPERTY: growth (%)

{"columns": ["COMPOUND", "UNIT_ABBREVIATION", "MEAS_VALUE"],
 "data": [
  ["COc1cc(C2CC(c3ccc(Cl)cc3)=Nc3c(N)nc(N)nc3N2)ccc1Oc1nc(Nc2ccc(F)cc2)nc(N(C)C)n1 (centres undefined)", "%", 55.4],
  ["Cn1cc(-c2cc3nc(-c4cn(C)c5ncc(Br)cc45)cc(N)n3n2)c2cc(F)ccc21", "%", 51.6],
  ["COc1ccc(-c2nc3ccc(-c4nnc(SCC(=O)Nc5ccc(/C(C)=N\\O)cc5)o4)cc3[nH]2)cc1", "%", 107],
  ["O=C(Cn1c(/C=C/c2ccc([N+](=O)[O-])cc2)nc2ccccc2c1=O)Nc1ccccc1", "%", 67.2],
  ["Cc1cc(Cl)ccc1NC(=O)Nc1ccc(-c2ccc3c(c2)NC(=O)/C3=C\\c2ccc[nH]2)cc1", "%", 130],
  ["O=C(c1ccc(O)cc1)C1[C@H](c2ccccc2Br)[C@@H](c2ccccc2)NC12C(=O)Nc1ccccc12 (some centres undefined)", "%", 28],
  ["CCCCCCCCCc1ccc(C(=O)Nc2cc(C)ccc2C(=O)OC)cc1", "%", 131],
  ["O=C1CCC(N2C(=O)c3cccc(NCCOCCOCCOCCC(=O)NCCCC(=O)NC(c4ccc5c(c4)OCO5)c4cc(Cl)c5cccnc5c4O)c3C2=O)C(=O)C1 (centres undefined)", "%", 24.5],
  ["C=CC(=O)N1CCN(c2ccc3nc4c(nc3c2C(F)(F)F)C(=O)c2ncccc2C4=O)CC1", "%", -22.8],
  ["COc1ccc(C(=O)c2cc(C(C)=O)c3c(C)cc(C)cn23)cc1", "%", 92.7],
  ["O=S(=O)(c1nc(-c2ccc(Br)cc2)oc1-c1ccc(Cl)cc1)N1CCCC(O)C1 (centres undefined)", "%", 81],
  ["CCCCCCCOc1ccc(S(=O)(=O)Nc2ccc(C)c(F)c2C(=O)O)cc1", "%", 122],
  ["CCOc1ccccc1[C@H]1C(C(=O)c2ccc(Cl)cc2)C2(N[C@@H]1c1ccccc1)C(=O)Nc1ccc(Br)cc12 (some centres undefined)", "%", -82.3],
  ["O=C(Nc1ccc(-c2ccc3c(c2)NC(=O)/C3=C\\c2ccc[nH]2)cc1)Nc1cccc(Cl)c1", "%", -58.6],
  ["NCCCCn1c(SCCc2c[nH]c3ccccc23)nnc1-c1ccc2ccccc2n1", "%", -66.6],
  ["N#Cc1ccc(C(=O)CSc2nc3c(c(Nc4ccc(S(N)(=O)=O)cc4)n2)CCC3)cc1", "%", 87.2],
  ["CC[C@]12C=CCN3CC[C@]4(C(=C(C(=O)OC)C1)Nc1cc(OC)c([C@@H]5[C@H]6O[C@H]6[C@@]6(CC)CC(C(=O)OC)=C7Nc8cc(O)ccc8[C@@]78CCN5[C@@H]68)cc14)[C@@H]32", "%", -70.2],
  ["Nc1nc2cc(-c3ccc4ncnc(NCc5ccccc5)c4c3)ccc2o1", "%", 52.9],
  ["COc1ccc(-c2cc(C(=O)OCc3ccc(Br)cc3)nn2-c2ccc(S(C)(=O)=O)cc2)cc1OC", "%", 110],
  ["O=C1Nc2cc(-c3ccc(NS(=O)(=O)c4ccc(F)c(Cl)c4)cc3)ccc2/C1=C/c1ccc[nH]1", "%", 35.4],
  ["Nc1cc(-c2c[nH]c3ccc(Cl)cc23)nc2cc(-c3c[nH]c4ccccc34)nn12", "%", -86],
  ["CCN1CCN(Cc2ccc(C(=O)Nc3cccc(Nc4ccc5c(OC)cccc5n4)c3)cc2C(F)(F)F)CC1", "%", -67.5],
  ["CN(C)c1nc(NCCNS(=O)(=O)c2ccc(C3=Nc4c(N)nc(N)nc4NC(c4ccc(C(F)(F)F)cc4)C3)cc2)nc(N2CCOCC2)n1 (centres undefined)", "%", -14.2],
  ["COc1c2c(c(Br)c3c1C(CCc1ccccc1)N(C)CC3)OCO2 (centres undefined)", "%", 29.6],
  ["O=C(CSc1nc2sc3c(c2c(=O)n1-c1ccc(Cl)cc1)CCCC3)NNC(=O)c1ccc(Br)cc1", "%", 120],
  ["Fc1ccc(Nc2nnc(-c3c[nH]c4ccccc34)o2)cc1", "%", 127],
  ["Nc1nn2c(-c3cc4cc(Br)ccc4oc3=O)ccnc2c1N=Nc1ccc(S(N)(=O)=O)cc1", "%", 96.5],
  ["COc1cc(/C=N/NC(=O)c2ccc(OCc3nc4ccc(C)cc4[nH]3)cc2)cc(OC)c1OC", "%", 8.02],
  ["Cc1ccc(-c2cc(C(=O)N=Nc3c(O)[nH]c4ccc(F)cc34)c3ccccc3n2)cc1", "%", 73.9],
  ["O=C(N=Nc1c(O)[nH]c2ccc(Cl)cc12)c1ccc2nc(-c3ccc(Cl)cc3)[nH]c2c1", "%", -17.6],
  ["CC1=C(C(=O)Nc2ccccc2)C(c2cccc(Cl)c2Cl)n2c(nc3ccccc32)N1 (centres undefined)", "%", 63.9],
  ["Cc1cc(C2(c3cc(C)c(OCC(O)CNc4c(C)n(C)n(-c5ccccc5)c4=O)cc3C(C)C)OC(=O)c3ccccc32)c(C(C)C)cc1OCC(O)CNc1c(C)n(C)n(-c2ccccc2)c1=O (centres undefined)", "%", 10.6],
  ["COc1ccc2[nH]cc(-c3cc(N)n4nc(-c5c[nH]c6ccccc56)cc4n3)c2c1", "%", -82.5],
  ["COc1ccc(/C=C/C(=O)c2ccc(OC)c(S(N)(=O)=O)c2)c(C(F)(F)F)c1", "%", 4.9]
]}
